molecular target: T1, full-length sAPPalpha fragment (UniProt P05067-4 18-612, limits assumed); test: indirect ELISA, sAPPalpha coated
T1 construct: domain: sAPPalpha; Bought protein; also called soluble APP alpha; soluble amyloid precursor protein alpha
T1 sequence (P05067 other isoform, or with tags, fused parts or gaps limits assumed): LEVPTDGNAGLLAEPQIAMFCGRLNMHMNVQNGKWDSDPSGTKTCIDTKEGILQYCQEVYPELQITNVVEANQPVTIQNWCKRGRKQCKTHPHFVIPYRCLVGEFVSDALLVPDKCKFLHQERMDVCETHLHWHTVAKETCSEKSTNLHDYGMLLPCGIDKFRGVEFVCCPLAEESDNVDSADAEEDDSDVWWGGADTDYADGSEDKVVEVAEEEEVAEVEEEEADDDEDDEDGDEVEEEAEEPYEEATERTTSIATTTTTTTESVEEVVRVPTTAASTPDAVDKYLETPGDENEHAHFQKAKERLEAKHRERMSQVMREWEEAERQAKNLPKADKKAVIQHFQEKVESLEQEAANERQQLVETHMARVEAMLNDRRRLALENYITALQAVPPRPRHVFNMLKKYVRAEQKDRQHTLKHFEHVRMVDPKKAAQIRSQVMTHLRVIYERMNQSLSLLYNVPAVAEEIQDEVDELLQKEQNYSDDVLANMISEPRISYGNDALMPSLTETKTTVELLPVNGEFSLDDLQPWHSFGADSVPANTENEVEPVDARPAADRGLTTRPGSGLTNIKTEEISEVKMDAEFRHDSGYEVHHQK

[
  {
    "binder": "ACI-8041-10H3B11-Ab1 (antibody, mouse IgG2a, kappa, V domains shown, Murine IgG2a/kappa; Same VH as ACI-8041-9D7E1-Ab1; also called ACI-8041-11B3B11-Ab1; AC-8041-13B11-Ab) VH: EVMLVESGGGLVKPGGSLKLSCAASGFTFSSYAMSWVRQTPEKRLEWVATISSGGNYTYCPDSVKGRFTISRDNAKNTLYLQMSSLRSEDTAMYYCAAYAYDDGYYFDYWGQGTTLTVSS VL: DIQMTQSPSSLSASLGGKVTITCKASQDINKYIAWYQHKPGKGPRLLIHYTSTLQPGIPSRFSGSGSGRDYSFSISNLGPEDIATYYCLQYDNLLTFGGGTKLEIKR",
    "binding result": "no binding"
  },
  {
    "binder": "ACI-8039-309D9-Ab2 (antibody, mouse IgG2a, kappa, V domains shown, Murine IgG2a/kappa; also called AC-8039-309D9-Ab2) VH: QVQLQQSGPQLVRPGASVKISCKASGNSFTSYWMHWVKQRPGQGLEWIGMIDPSDSETRLNQKFKDKATLTVDKSSSTAYMQLSSPTSEDSAVYYCAGLYFTLDYWGQGTSVTVSS VL: DILMTQSPSSLTVSAGEKVTMSCKSSQSLLASGNQNNYLAWHQQKPGRSPKILIIWASTRVSGVPDRFIGSGSGTDFTLTINSVQAEDLAVYYCQQSYSAPLTFGAGTKLELKR",
    "binding result": "no binding"
  },
  {
    "binder": "ACI-8041-2B9H5-Ab1 (antibody, mouse IgG2a, kappa, V domains shown, Murine IgG2a/kappa; also called AC-8041-2B95-Ab1) VH: QVQLQQSDAELVKPGASVKISCKVSGYTFTDHPIHWMKQRPDQGLEWIGYFYPRDSSTHYNEKFKGKATLTADKSSSTAYMQLNSLTSEDSAVYFCARSMGYWGQGTSVTVSS VL: DIKMTQSPSSMYASLGERVTITCKASQDINSYLSWFQQKPGKSPKTLIYRANRLVDGVPSRFSGSGSGQDYSLTISSLDYEDMGIYYCLQYDEFPPTFGAGTKLELKR",
    "binding result": "no binding"
  }
]

Data provenance is patent US20230034474A1.
